Assay: A549 cell cytotoxicity, dose response, cytotoxicity control, plate reader, cherry-pick, antagonist series (AID 743412)
Format: functional, cell-based
Calls of active or inactive are those of the source.
Provide the recorded AC50 for the entries that follow.

Field: example entries. Status: answers known.
- compound: "O=C(C[C@H]1C[C@@H]2c3cc(NS(=O)(=O)c4ccc(F)cc4)ccc3O[C@@H]2[C@@H](CO)O1)NCc1ccc(Oc2ccccc2)cc1"
  assay result: "19.3 µM (active)"
- compound: "Oc1nc2ccccc2n1C1CCN(C(CCc2ccccc2)c2nnnn2C2CCCCC2)CC1 (centres undefined)"
  assay result: "15.8 µM (active)"

# batch: return AC50 for each of the 2 compounds below
1. COC(=O)c1cccc(NC(=O)c2ccc(S(=O)(=O)N(C)c3ccccc3OC)cc2)c1
2. O=C(C1CC1)N1C[C@@H]2N[C@H](C1)[C@@H]2c1ccc(-c2ccccc2F)cc1

Ans:
1. 22.7 µM (active)
2. 1.84 µM (active)

###

Target: High affinity choline transporter 1 (Homo sapiens, UniProt Q9GZV3)
Sequence (Q9GZV3 whole entry): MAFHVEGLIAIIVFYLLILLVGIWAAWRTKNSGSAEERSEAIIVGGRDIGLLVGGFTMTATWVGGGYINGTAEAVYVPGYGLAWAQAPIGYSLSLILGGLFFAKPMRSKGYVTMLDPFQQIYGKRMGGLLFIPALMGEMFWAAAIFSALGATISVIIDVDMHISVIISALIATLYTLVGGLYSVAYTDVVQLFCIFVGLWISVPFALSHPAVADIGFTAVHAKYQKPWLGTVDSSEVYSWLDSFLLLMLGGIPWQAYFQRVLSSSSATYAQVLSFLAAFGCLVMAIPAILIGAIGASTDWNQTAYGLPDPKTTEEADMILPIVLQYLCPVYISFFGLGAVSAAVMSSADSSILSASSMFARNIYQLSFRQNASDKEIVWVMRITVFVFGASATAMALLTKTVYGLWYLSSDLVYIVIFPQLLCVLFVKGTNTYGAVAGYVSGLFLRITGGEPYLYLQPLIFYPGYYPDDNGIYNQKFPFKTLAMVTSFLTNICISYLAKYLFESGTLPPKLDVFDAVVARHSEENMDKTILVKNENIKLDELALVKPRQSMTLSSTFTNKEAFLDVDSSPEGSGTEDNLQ
Experiment: CHT inhibitors, dose response, cell-based, 5-point CRC, membrane potential dye (AID 504840)
Assay type: functional
The source made the active and inactive calls.
endpoint: IC50

Consider the worked cases shown below.
- compound: "CC1(C)COCN1S(=O)(=O)c1ccc(C(=O)Nc2nnc(-c3ccc(Cl)s3)o2)cc1"
  IC50: "13.8 µM (active)"
- compound: "CC1(C)CC(=O)C=C(Nc2cccc(Cl)c2Cl)C1"
  IC50: "3.16 µM (active)"
- compound: "CC(=O)OC1CC2(C)/C(=N\\O)CCC2C2CCc3cc(O)ccc3C12 (stereo not given)"
  IC50: "0.953 µM (active)"
- compound: "Cc1ccc2c(c1)[C@@H]1CN(C)CC[C@@H]1N2C(=O)Nc1cccc(C(F)(F)F)c1"
  IC50: "8.23 µM (active)"

Shifting focus to the compound that follows.
# CCCCC[C@H](O)/C=C/[C@@H]1[C@@H](C/C=C\CCCC(=O)O)[C@@H](O)C[C@H]1O with High affinity choline transporter 1 (Homo sapiens, UniProt Q9GZV3): IC50 is 2.94 µM (active)

###

Target: Cytochrome P450 2C19 (Homo sapiens)
Sequence (P33261 whole entry): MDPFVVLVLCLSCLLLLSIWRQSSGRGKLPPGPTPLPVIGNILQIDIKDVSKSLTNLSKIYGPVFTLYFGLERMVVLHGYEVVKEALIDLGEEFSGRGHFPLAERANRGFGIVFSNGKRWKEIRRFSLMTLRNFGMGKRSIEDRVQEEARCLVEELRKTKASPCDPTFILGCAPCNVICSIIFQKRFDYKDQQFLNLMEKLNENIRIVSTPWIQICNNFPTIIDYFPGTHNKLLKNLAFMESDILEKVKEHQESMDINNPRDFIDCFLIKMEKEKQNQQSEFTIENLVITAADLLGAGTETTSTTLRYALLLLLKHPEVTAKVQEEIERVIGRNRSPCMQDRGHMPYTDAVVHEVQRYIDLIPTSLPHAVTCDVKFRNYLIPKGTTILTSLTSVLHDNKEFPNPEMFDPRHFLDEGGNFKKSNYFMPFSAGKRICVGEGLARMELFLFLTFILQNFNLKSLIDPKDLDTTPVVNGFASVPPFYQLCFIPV
Assay: Cytochrome panel assay with activity outcomes. Panel member name: p450-cyp2c19 Compounds with AC50 equal or less than 10 uM are considered active
Type: functional
Exercise: state measured AC50 for each of the molecules provided.

Here's what some known entries look like.
- molecule: "CC(C)(C)c1ccc(OCC(=O)NNC(=O)CCc2ccccc2)cc1"
  endpoint: "AC50"
  assay result: "14100 nM (inconclusive)"
- molecule: "CCCOc1ccc(CSC(CC(=O)O)C(=O)O)cc1 (stereo not given)"
  endpoint: "AC50"
  assay result: "224 nM (inconclusive)"

// each molecule listed below needs its AC50
1. Cc1cc2cc(C=O)c(Cl)nc2cc1C
2. CC(SCc1cn2cc(Cl)ccc2n1)C(=O)O (stereo not given)
3. CCC1Oc2ccccc2N(CC(=O)NCCCN2CCCCC2C)C1=O (stereo not given)

Ans:
["70.8 nM (inconclusive)", "28200 nM (inconclusive)", "2240 nM (inconclusive)"]

###

Molecular target: Trace amine-associated receptor 1 (Homo sapiens, UniProt Q96RJ0)
Sequence (Q96RJ0 whole entry): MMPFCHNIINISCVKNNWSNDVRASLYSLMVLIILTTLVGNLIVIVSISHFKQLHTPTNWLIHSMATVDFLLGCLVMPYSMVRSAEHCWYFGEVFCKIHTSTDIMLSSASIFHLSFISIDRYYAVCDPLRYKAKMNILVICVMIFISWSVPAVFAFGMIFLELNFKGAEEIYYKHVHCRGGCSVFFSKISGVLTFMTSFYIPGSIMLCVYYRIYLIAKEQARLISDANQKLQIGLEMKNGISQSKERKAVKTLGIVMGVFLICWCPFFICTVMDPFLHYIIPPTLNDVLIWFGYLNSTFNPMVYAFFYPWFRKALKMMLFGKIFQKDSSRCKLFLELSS
Assay: Fluorescence-based cell-based high throughput dose response assay to identify agonists of the human trace amine associated receptor 1 (TAAR1).
Format: functional
Where a name gives a salt, the structure may show the parent alone. Activity calls are given as the source filed them.
endpoint: EC50

- molecule: "NCCc1nc(-c2ccccc2)cs1"
  assay result: "4.72 µM (active)"
- molecule: "CN(C)c1ccc(/C=N/CC2COc3ccccc3O2)cc1 (centres undefined)"
  assay result: "4.25 µM (active)"
- molecule: "O=C(CCN1CCC(c2ccccc2)C1)c1ccc2c(c1)OCCO2 (centres undefined) [PROROXAN HYDROCHLORIDE]"
  assay result: "0.21 µM (active)"

# EC50 of S=C1SCN(CCc2ccccc2)CN1CCc1ccccc1 = 2.11 µM (active)

###

Molecular target: Peroxisome proliferator-activated receptor gamma/Nuclear receptor coactivator 1 (Homo sapiens, UniProt P37231);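 further: agonist potency as compounds enhance coactivator SRC-1 recruitment to PPARgamma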
Format: functional
endpoint: EC50

Look over these answered cases.
- compound: "O=C(c1cc(COc2ccc(F)cc2Cl)on1)N1CCCC(OCc2cccnc2)C1 (stereo not given)"
  EC50: "> 79.4 µM (not active)"
- compound: "Cc1cc(C)c(C(=O)CSc2nnc(-c3ccccc3Br)o2)cc1C"
  EC50: "51.9 µM (not active)"
- compound: "COc1ccc(-c2cc(C(F)F)n3ncc(C(=O)N4CCCc5ccccc54)c3n2)cc1"
  EC50: "> 79.4 µM (not active)"
- compound: "CCOC(=O)C1CCCN(S(=O)(=O)c2cc(Br)cc3c2N(C(=O)C2CC2)CC3)C1 (stereo not given)"
  EC50: "> 79.4 µM (not active)"

Looking up CCOC(=O)c1ccccc1NC(=O)c1cn(-c2ccc(C)c(C)c2)c(=O)c2ccccc12 , I see its EC50 listed as > 79.4 µM (not active)

###

Biological target: Hepatocyte growth factor receptor (Homo sapiens);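 further: kinase panel profiling across the kinome, with MET as the panel member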
Sequence (P08581 whole entry): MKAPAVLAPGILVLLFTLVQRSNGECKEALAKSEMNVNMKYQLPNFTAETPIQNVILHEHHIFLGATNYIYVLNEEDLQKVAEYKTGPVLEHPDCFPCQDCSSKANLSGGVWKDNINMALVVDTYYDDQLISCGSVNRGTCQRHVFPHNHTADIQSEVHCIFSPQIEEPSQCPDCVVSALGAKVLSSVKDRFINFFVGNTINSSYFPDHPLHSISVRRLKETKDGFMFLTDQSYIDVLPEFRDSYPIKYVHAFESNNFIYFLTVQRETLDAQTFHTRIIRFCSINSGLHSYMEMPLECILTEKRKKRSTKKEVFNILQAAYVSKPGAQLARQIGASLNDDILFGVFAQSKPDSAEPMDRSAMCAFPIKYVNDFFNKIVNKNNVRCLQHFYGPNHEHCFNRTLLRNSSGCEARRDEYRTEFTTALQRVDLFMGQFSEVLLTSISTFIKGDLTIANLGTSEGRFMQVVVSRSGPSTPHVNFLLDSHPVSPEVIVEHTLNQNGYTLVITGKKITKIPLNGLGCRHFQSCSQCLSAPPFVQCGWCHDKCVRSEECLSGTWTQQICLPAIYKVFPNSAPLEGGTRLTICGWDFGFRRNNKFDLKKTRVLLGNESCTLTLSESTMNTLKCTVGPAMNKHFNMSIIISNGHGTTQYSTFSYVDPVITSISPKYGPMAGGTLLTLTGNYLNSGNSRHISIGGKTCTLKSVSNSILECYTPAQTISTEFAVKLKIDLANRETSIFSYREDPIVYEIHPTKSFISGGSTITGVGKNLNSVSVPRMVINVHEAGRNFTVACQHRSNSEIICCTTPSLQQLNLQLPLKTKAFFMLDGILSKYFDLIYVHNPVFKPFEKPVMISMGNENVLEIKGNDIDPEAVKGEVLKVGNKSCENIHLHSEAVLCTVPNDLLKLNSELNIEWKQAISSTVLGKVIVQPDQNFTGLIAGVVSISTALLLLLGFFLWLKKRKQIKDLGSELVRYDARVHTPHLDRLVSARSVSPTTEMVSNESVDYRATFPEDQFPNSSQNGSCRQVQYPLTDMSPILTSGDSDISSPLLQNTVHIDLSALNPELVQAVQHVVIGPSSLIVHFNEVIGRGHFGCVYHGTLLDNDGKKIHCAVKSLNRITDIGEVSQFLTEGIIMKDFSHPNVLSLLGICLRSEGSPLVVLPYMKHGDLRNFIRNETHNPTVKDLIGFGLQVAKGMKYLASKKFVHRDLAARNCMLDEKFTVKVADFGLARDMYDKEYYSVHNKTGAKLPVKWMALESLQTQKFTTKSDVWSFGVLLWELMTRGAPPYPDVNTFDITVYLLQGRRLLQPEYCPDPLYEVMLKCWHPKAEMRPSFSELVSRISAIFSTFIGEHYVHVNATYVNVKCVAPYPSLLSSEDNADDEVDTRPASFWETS
Type: functional
Calls of active or inactive are those of the source.
Form entry, call: pick from 1 (active), 0 (inactive)

Past entries and their recorded results:
- compound: "O=C(Nc1cccc(C(F)(F)F)n1)Nc1ccnc2cc(Cl)ccc12"
  category label: 0
- compound: "CCC1CC(NS(=O)(=O)C2CC2)CC1c1ncc2cnc3[nH]ccc3n12 (centres undefined)"
  category label: 0
- compound: "c1ccc(CNc2nc(Nc3cc(C4CC4)[nH]n3)c3sccc3n2)cc1"
  category label: 1

Q: I would be grateful if you could indicate the recorded call for O=C(Nc1cccc(C(F)(F)F)n1)Nc1ccnc2cc(OC(F)F)ccc12 .
Ans: 0

###

Target: Death-associated protein kinase 3 (Homo sapiens);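 further: measured as one member of a kinome-wide profiling panel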
Sequence (O43293 whole entry): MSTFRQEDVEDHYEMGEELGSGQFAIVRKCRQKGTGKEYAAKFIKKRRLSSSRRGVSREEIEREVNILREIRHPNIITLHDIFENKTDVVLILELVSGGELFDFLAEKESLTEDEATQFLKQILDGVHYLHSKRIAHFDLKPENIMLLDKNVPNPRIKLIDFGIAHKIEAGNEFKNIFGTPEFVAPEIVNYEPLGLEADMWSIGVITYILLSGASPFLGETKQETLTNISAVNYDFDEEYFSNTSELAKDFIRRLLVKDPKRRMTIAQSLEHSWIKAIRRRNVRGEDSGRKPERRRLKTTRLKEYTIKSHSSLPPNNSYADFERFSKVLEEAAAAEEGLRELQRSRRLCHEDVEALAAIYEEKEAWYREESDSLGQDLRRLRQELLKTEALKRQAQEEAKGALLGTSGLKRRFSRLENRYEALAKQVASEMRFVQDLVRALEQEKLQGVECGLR
Type: functional
The source made the active and inactive calls.
Outcome field: choose from 1 for active, 0 for inactive

- molecule: "O=C(Nc1cccc(C(F)(F)F)n1)Nc1ccnc2cc(OC(F)F)ccc12"
  test target: "Death-associated protein kinase 3 (Homo sapiens)"
  category label: 0
- molecule: "O=c1[nH]c2cc(Br)cnc2[nH]1"
  test target: "Death-associated protein kinase 3 (Homo sapiens)"
  category label: 1
- molecule: "O=C(Nc1cccc(C(F)(F)F)n1)Nc1ccnc2cc(Cl)ccc12"
  test target: "Death-associated protein kinase 3 (Homo sapiens)"
  category label: 0

Turning now to a further record.
Q: Could you check what this test reported for CCC1CC(NS(=O)(=O)C2CC2)CC1c1ncc2cnc3[nH]ccc3n12 (centres undefined) ?
Ans: 1

###

Target: Paired box protein Pax-8 (Homo sapiens, UniProt Q06710)
Sequence (Q06710 whole entry): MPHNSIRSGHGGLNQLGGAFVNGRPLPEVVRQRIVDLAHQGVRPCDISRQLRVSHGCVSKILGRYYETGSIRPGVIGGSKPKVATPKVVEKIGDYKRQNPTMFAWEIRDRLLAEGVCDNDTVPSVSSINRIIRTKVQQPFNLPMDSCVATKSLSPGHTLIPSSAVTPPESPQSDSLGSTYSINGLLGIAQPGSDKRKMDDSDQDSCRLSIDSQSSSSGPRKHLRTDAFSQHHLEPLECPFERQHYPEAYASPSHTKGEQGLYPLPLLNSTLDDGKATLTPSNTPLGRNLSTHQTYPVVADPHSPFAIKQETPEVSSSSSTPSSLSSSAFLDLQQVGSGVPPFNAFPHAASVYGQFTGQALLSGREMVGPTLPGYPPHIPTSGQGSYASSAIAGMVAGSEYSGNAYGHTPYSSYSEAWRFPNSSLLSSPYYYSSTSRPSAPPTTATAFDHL
Assay: inhibitors of PAX8-driven TPO luciferase reporter, dose response, RMG-I cells, cherry-pick (AID 687027);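 further: luciferase reporter driven by Pax8 target thyroperoxidase promoter measured by SteadyGlo luminescence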
Format: functional, cell-based
Calls of active or inactive are those of the source.
For each of the compounds below, state its AC50.

Example entries begin here.
- compound: "Cc1ccccc1S(=O)(=O)N1CC[C@@H]2[C@H](CO)Nc3ccc(-c4cccc(F)c4)cc3[C@@H]21"
  assay result: "13.6 µM (active)"
- compound: "O=C(C[C@@H]1C[C@@H]2c3cc(NS(=O)(=O)c4ccc(F)cc4)ccc3O[C@@H]2[C@@H](CO)O1)NCc1ccc(Oc2ccccc2)cc1"
  assay result: "6.15 µM (active)"
- compound: "CC(=O)/C=C/n1c(=S)oc2ccccc21"
  assay result: "5.95 µM (active)"

Dear colleague, could you send me AC50 for each of the items below? Thanks.
1. O=C(C[C@H]1C[C@@H]2c3cc(NS(=O)(=O)c4ccc(F)cc4)ccc3O[C@@H]2[C@@H](CO)O1)NCc1ccc(Oc2ccccc2)cc1
2. CC1=CC(C)(C)N2C(=O)C3(NCCc4c3[nH]c3ccccc43)c3cc(C)cc1c32 (stereo not drawn)
3. CN(C[C@H]1N[C@@H](CO)[C@@H]1c1ccc(C2=CCCC2)cc1)C(=O)c1ccncc1
4. COc1ccc(NC(=O)Nc2ccc3c(c2)C(=O)N([C@H](C)CO)C[C@@H](C)[C@H](CN(C)Cc2ccc(C(F)(F)F)cc2)OCCCC[C@H](C)O3)cc1
5. O=C(C1CC1)N1C[C@@H]2N[C@H](C1)[C@@H]2c1ccc(-c2ccccc2F)cc1

Ans:
8.32 µM (active)
7.27 µM (active)
6.17 µM (active)
5.71 µM (active)
1.2 µM (active)

###

Molecular target: Induced myeloid leukemia cell differentiation protein Mcl-1 (Homo sapiens, UniProt Q07820)
Sequence (Q07820 whole entry): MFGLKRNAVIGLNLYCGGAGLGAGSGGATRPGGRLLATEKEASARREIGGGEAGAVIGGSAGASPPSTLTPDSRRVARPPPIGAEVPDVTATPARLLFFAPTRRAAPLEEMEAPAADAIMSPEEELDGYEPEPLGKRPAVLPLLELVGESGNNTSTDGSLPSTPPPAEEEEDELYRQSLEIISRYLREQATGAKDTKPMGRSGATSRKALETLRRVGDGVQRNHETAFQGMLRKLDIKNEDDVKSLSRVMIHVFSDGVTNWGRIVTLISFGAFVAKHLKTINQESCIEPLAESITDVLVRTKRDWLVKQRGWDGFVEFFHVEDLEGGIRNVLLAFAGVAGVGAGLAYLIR
Assay type: functional
Counter-ions that a name gives are not always drawn. Active and inactive are the calls of the source.
endpoint: IC50

Before answering, review these 4 worked examples.
- molecule: "Cc1c(/N=N/c2c(-c3ccc([N+](=O)[O-])cc3)[nH]n(C(N)=S)c2=O)cccc1[N+](=O)[O-]"
  test target: "Induced myeloid leukemia cell differentiation protein Mcl-1 (Homo sapiens, UniProt Q07820)"
  IC50: "6.05 µM (active)"
- molecule: "COc1cc(/C=C2/C(=N)N3N=C(c4ccc(C)cc4)SC3=NC2=O)ccc1O"
  test target: "Induced myeloid leukemia cell differentiation protein Mcl-1 (Homo sapiens, UniProt Q07820)"
  IC50: "3.26 µM (active)"
- molecule: "CN1CCc2cccc3c2[C@H]1Cc1ccc(O)c(O)c1-3 [APOMORPHINE HYDROCHLORIDE]"
  test target: "Induced myeloid leukemia cell differentiation protein Mcl-1 (Homo sapiens, UniProt Q07820)"
  IC50: "4.38 µM (active)"
- molecule: "O=C(CNC(=O)C(c1ccccc1)c1ccccc1)N/N=C/c1cccnc1"
  test target: "Induced myeloid leukemia cell differentiation protein Mcl-1 (Homo sapiens, UniProt Q07820)"
  IC50: "5.72 µM (not active)"

In the following, a different molecule is considered.
Briefly, IC50 measured for COC(=O)c1ccc2nc(Nc3nc4c(F)cc(F)cc4s3)sc2c1 : 2.8 µM (active)
